- Assay name: gradient 5% acetonitrile 3 min, to 50% in 2 min, to 85% in 15 min, held 3 min, 100 µL/min
- Condition parameters: column: Zorbax Extend-C18 2.1 x 50 mm; eluents: water / acetonitrile, 0.1% formic acid
Reported metric: RP-LC retention time (s)

[1] COc1cc(NC(=O)CN2CCN(Cc3ccccc3)C(=O)C2=O)cc(OC)c1OC
[2] O=C(O)c1ccccc1-n1c2ccccc2c2ccccc21
From the recorded data, which exceeds the other in RP-LC retention time: 1 or 2 ? # reply format: chosen label 2
(2: 1050 s, 1: 669 s)

[1] Cc1cc(C)n(Cc2nc(-c3ccc(NC(=O)c4sccc4C)cc3)oc2C)n1
[2] COc1cn(CC(=O)Nc2cccc(C)c2C)c(CN2CCCCCC2)cc1=O
Returns the identifier with the smallest measured RP-LC retention time among 1 and 2 . # reply format: chosen label 2

[1] CCc1ccccc1NS(=O)(=O)c1cc(-c2c(CC)noc2NC(C)=O)ccc1OC
[2] Cc1cc2n(n1)CCC(=O)N2CCCC(=O)NCCCN1CCc2ccccc2C1
From the recorded data, which exceeds the other in RP-LC retention time: 1 or 2 ? # reply format: chosen label 1
(1: 838 s, 2: 580 s)
